Here the recorded Plate 1 (% inhibition) is given for each entry.
- Target under test: His6-AspH315–758 (human aspartate/asparagine-β-hydroxylase, AspH) (Homo sapiens, UniProt Q12797)
- Construct: N-Terminally His6-tagged human AspH315–758 (His6-AspH315–758) was produced in E. coli BL21 (DE3) cells; made in house; host or cells: E. coli BL21 (DE3), pET-28a(+) vector
- Sequence (Q12797 315-758): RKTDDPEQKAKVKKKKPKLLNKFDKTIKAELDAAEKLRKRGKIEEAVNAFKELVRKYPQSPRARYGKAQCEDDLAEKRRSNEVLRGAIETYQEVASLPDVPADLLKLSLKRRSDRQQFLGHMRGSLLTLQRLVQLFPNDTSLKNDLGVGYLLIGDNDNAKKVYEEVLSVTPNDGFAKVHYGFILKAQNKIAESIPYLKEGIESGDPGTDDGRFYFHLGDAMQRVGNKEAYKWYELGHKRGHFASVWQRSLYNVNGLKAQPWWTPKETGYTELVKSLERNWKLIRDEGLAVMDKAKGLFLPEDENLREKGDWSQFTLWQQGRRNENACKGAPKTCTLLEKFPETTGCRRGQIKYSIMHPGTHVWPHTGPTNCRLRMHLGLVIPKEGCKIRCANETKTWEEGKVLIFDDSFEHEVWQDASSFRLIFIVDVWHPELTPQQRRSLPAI
- Assay: SPE-MS AspH inhibition assay (LOPAC screen at fixed 20 μM and IC50 dose-response), hydroxylation of cyclic peptide hFX-CP101–119
- Format: biochemical
- Measurement conditions: LOPAC compound at fixed 20 uM; plate 1, normalised to DMSO and 2,4-PDCA controls
Where a name gives a salt, the structure may show the parent alone.
Measured parameter: Plate 1 (% inhibition) (%)

>>> df
                                    compound  quantitative_result
 0  NC(=O)N1c2ccccc2C=Cc2ccccc21 [Carbamazepine]                 0.72
 1                NC(=O)c1ccccc1 [Benzamide]                -4.66
 2  Cn1cc(C(=O)OCC2CCN(CCNS(C)(=O)=O)CC2)c2ccccc21                -5.71
 3  CC(C)c1c(C(=O)Nc2ccccc2)c(-c2ccccc2)c(-c2ccc(F)cc2)n1CC[C@@H](O)C[C@@H](O)CC(=O)O [Atorvastatin calcium salt trihydrate]                 1.55
 4  C[C@]12C[C@H](O)[C@H]3[C@@H](CCC4=CC(=O)CC[C@@]43C)[C@@H]1CC[C@@H]2C(=O)CO                -6.36
 5  C=CCc1ccccc1OCC(O)CNC(C)C (stereo not drawn) [Alprenolol hydrochloride]                -9.33
 6  O=C1NC(=O)c2cc(Nc3ccccc3)c(Nc3ccccc3)cc21                -7.17
 7      NCCSSCCN [Cystamine dihydrochloride]                -7.76
 8  N=c1ccn2c(n1)O[C@H]1[C@H](O)[C@@H](CO)O[C@H]12 [Ancitabine hydrochloride]                -4.15
 9  CN(C)CC[C@@H](c1ccc(Br)cc1)c1ccccn1 [(+)-Brompheniramine maleate]                 1.01
10  NCC(O)(CS(=O)(=O)O)c1ccc(Cl)cc1 (stereo not drawn) [2-Hydroxysaclofen]                -6.82
11                     Nc1ncnc2c1ncn2C1CCCC1                 2.94
12  CN(Cc1cnc2nc(N)nc(N)c2n1)c1ccc(C(=O)N[C@@H](CCC(=O)O)C(=O)O)cc1.O [Methotrexate hydrate]                -3.72
13  Cl.O=C1NCCc2[nH]c(-c3ccncc3)cc21 [PHA 767491 hydrochloride]               -17.71
14               CN(C)c1nc(N(C)C)nc(N(C)C)n1                -0.35
15  O=C(O)C1=CC(=C(c2ccc(O)c(C(=O)O)c2)c2ccc(O)c(C(=O)O)c2)C=CC1=O [Aurintricarboxylic acid, reference compound]               103.81
16  CCN(CC)CCOCCOC(=O)C1(c2ccccc2)CCCC1 [Carbetapentane citrate]                80.85
17                  N[C@@H](CCCC(=O)O)C(=O)O                -2.85
